test system: mitochondrial membrane potential; type: cell-based, mouse
Rule: ΔΨm (composite Z-score) under -0.4 gives Not met, otherwise Met.

| smiles.string | system.tested | classification |
| --- | --- | --- |
| CN[C@@H](Cc1c[nH]c2ccccc12)C(=O)O | mitochondrial membrane potential | Met |
| C[C@H]1C[C@H]2[C@@H]3CCC4=CC(=O)C=C[C@]4(C)[C@@]3(F)[C@@H](O)C[C@]2(C)[C@@]1(O)C(=O)CO | mitochondrial membrane potential | Met |
| COc1ccc(-c2coc3c(OC)c(OC)ccc3c2=O)cc1 | mitochondrial membrane potential | Met |
| COc1ccccc1/C=C/C(=O)O | mitochondrial membrane potential | Not met |

Value source: patent US20090143279A1
